Molecular target: T1, cynomolgus monkey OX40 protein (Novoprotein, #CB17) (cynomolgus monkey)
T1 construct: Bought recombinant protein; also called cyno OX40
Test: BLI, antibody on ProA sensor, 1:1 global fit
Reported metric: pKd
Just so you know, pKd here is -log10 of the concentration in molar units; reply with that number alone.

Form: binder = PR002065 (antibody, human IgG1, V domains shown, no light chain; also called anti-OX40 HCAb antibody) VH: EVQLVESGGGLVQPGGSLRLSCAASGFTFSSYAMSWVRQAPGKGLEWVSAISGRGDITFYADSVRGRFTISRDNSKNTLYLQMNSLRAEDTALYYCANGMTGSTDVDFWGQGTLVTVSS ; pKd = 7.47
